What cAMP Rel EC50, nM (1% HSA) was measured for each of the following?
# measured target: hGLP-1R (Homo sapiens, UniProt P43220)
# Sequence (P43220 24-463): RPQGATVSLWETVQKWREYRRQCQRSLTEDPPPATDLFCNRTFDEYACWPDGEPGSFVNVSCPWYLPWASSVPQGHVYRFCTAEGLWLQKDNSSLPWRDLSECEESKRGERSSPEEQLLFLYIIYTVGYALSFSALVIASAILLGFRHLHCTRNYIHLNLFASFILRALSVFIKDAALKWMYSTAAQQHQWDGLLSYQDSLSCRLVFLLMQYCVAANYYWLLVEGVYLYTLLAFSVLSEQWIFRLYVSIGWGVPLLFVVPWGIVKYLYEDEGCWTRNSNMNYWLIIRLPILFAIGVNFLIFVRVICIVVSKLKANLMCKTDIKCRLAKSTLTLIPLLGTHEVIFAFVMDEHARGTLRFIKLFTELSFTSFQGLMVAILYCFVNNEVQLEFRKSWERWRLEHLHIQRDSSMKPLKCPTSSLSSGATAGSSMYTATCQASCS
# test details: cell-based or functional assay
Starred links: 1 amine or outer side, 2 acyl side, 3 side chain; linkers in the order of their positions; H or OH if unused. Non-standard residues stand in square brackets, D forms with d. Groups on a side chain read outwards from the residue. No end group written: not given here. *: point of attachment. C18 diacid = O=C(O)CCCCCCCCCCCCCCCCC(=O)*; Phe(4-CN) = N#Cc1ccc(C[C@H](N)C(=O)O)cc1; αMePhe(2-F) = C[C@](N)(Cc1ccccc1F)C(=O)O; γGlu = O=C(O)[C@H](CCC(=O)[*:2])N[*:1]; αMe4Pal = C[C@](N)(Cc1ccncc1)C(=O)O; 4Pal = N[C@@H](Cc1ccncc1)C(=O)O; αMeL = CC(C)C[C@](C)(N)C(=O)O; Orn = NCCC[C@H](N)C(=O)O; Aib = CC(C)(N)C(=O)O
Dear colleague, please return just the value in nM, with no unit written.

// cAMP Rel EC50, nM (1% HSA) lookup, key: YXQGTFTSDFSXXLDKKAQXAFIEYLLEXGPSSGAPPPSGS (synthetic construct; SITE 2: note = 2-Aminoisobutyric Acid; SITE 12: note = L-ornithine; SITE 13: note = alpha-methyl-leucine; SITE 17: note = Lysine is chemically modified through conjugation of the epsilon-amino group of the Lysine side chain with (2-[2-(2-Amino-ethoxy)-ethoxy]-acetyl)-(gamma-Glu)) [Example 192]
719

// cAMP Rel EC50, nM (1% HSA) lookup, key: YXQGTFTSDFSXXLDKKAQXAFIEYLLEXGXSSGAPPPSGS (synthetic construct; SITE 2: note = 2-Aminoisobutyric Acid; SITE 12: note = L-ornithine; SITE 13: note = alpha-methyl-leucine; SITE 17: note = Lysine is chemically modified through conjugation of the epsilon-amino group of the Lysine side chain with (2-[2-(2-Amino-ethoxy)-ethoxy]-acetyl)2-(gamma-Glu)) [Example 183]
295

// cAMP Rel EC50, nM (1% HSA) lookup, key: YXQGTFTSDXSQXLDKKAQXAFIEXLIEGGPSSGAPPPSGSEE (non-natural residues; Lys acylated C18 diacid; C-terminal amide; synthetic construct; SITE 2: note = 2-Aminoisobutyric Acid; SITE 10: note = 3-(4-Pyridyl)-L-alanine; SITE 13: note = alpha-methyl-leucine; SITE 17: note = Lysine is chemically modified through conjugation of the epsilon-amino group of the Lysine side chain with (gamma-Glu)2-CO-(CH2)16-CO2H; SITE 20:) [Example 957]
747

// cAMP Rel EC50, nM (1% HSA) lookup, key: Y[Aib]QGTFTSD[4Pal]SQ[αMeL]LD[Orn]KK([Glu-γGlu-C18 diacid])AQ[αMe4Pal]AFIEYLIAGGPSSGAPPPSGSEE-NH2 [Example 1032]
148

// cAMP Rel EC50, nM (1% HSA) lookup, key: YXQGTFTSDXSXXLDXKAQXEFIEYLLAGGPSSGAPPPSGSEE ((γGlu)2-C18 diacid on Lys; non-natural residues; amide; synthetic construct; SITE 2: note = 2-Aminoisobutyric Acid; SITE 10: note = 3-(4-Pyridyl)-L-alanine; SITE 12: note = L-ornithine; SITE 13: note = alpha-methyl-leucine; SITE 16: note = L-ornithine; SITE 17: note = Lysine is chemically modified through conjugation of the epsilon-amino group of the Lys) [Example 1003]
1950

// cAMP Rel EC50, nM (1% HSA) lookup, key: YXQGTFTSDXSRXLDKKAQXAFIEYLIAGGPSSGAPPPSGSEE (Aib, 4Pal, αMeL, Me4Pal; γGlu2-C18 diacid Lys; C-term amide; synthetic construct; SITE 2: note = 2-Aminoisobutyric Acid; SITE 10: note = 3-(4-Pyridyl)-L-alanine; SITE 13: note = alpha-methyl-leucine; SITE 17: note = Lysine is chemically modified through conjugation of the epsilon-amino group of the Lysine side chain with (gamma-Glu)2-CO-(CH2)16-CO2H; SITE 20:) [Example 962]
132

// cAMP Rel EC50, nM (1% HSA) lookup, key: YXQGTFTSDXSRXLDKKAQXAFIEXLIEGGPSSGAPPPSGS (non-natural residues, AEEA-γGlu-C18 diacid lysine acylation, C-terminal amide; synthetic construct; SITE 2: note = 2-Aminoisobutyric Acid; SITE 10: note = 3-(4-Pyridyl)-L-alanine; SITE 13: note = alpha-methyl-leucine; SITE 17: note = Lysine is chemically modified through conjugation of the epsilon-amino group of the Lysine side chain with (2-[2-(2-Amino-ethoxy)-ethoxy]-acetyl)) [Example 950]
328

// cAMP Rel EC50, nM (1% HSA) lookup, key: Y[Aib]QGT[αMePhe(2-F)]TSD[Phe(4-CN)]SILLDKQAQKAFIQYLLEGGPSSGEPPPSEG-NH2 (not fully specified (residue 20)) [Example 353]
222

// cAMP Rel EC50, nM (1% HSA) lookup, key: YXQGTFTSDFSXXLDKKAQXAFIEYLLEXGHSSGAPPPSGE (synthetic construct; SITE 2: note = 2-Aminoisobutyric Acid; SITE 12: note = L-ornithine; SITE 13: note = alpha-methyl-leucine; SITE 17: note = Lysine is chemically modified through conjugation of the epsilon-amino group of the Lysine side chain with (2-[2-(2-Amino-ethoxy)-ethoxy]-acetyl)2-(gamma-Glu)) [Example 186]
690

// cAMP Rel EC50, nM (1% HSA) lookup, key: YXQGTFTSDFSXXLDKKAQXAFIEYLLEXGPSSGAPPPEGS (synthetic construct; SITE 2: note = 2-Aminoisobutyric Acid; SITE 12: note = L-ornithine; SITE 13: note = alpha-methyl-leucine; SITE 17: note = Lysine is chemically modified through conjugation of the epsilon-amino group of the Lysine side chain with (2-[2-(2-Amino-ethoxy)-ethoxy]-acetyl)2-(gamma-Glu)) [Example 194]
697

// cAMP Rel EC50, nM (1% HSA) lookup, key: YXQGTFTSDXSRXLDKKAQXAFIEYLIEXGESSGAPPPSGE (acylated; synthetic construct; SITE 2: note = 2-Aminoisobutyric Acid; SITE 10: note = 3-(4-Pyridyl)-L-alanine; SITE 13: note = alpha-methyl-leucine; SITE 17: note = Lysine is chemically modified through conjugation of the epsilon-amino group of the Lysine side chain with (2-[2-(2-Amino-ethoxy)-ethoxy]-acetyl)) [Example 225]
438
